Reported log2 fold change values follow for various molecules
# tgt: ZRANB2 (UniProt O95218)
# Sequence (O95218 whole entry, looked up): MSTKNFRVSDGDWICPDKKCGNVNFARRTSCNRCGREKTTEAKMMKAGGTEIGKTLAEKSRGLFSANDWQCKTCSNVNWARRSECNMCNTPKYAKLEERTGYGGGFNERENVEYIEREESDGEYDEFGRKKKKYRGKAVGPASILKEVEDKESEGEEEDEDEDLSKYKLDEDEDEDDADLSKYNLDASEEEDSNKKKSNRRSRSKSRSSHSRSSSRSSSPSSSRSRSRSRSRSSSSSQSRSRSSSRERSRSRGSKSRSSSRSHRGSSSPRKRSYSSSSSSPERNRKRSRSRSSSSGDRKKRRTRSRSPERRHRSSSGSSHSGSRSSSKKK
# measurement_description: log2 fold change, soluble protein after heating vs DMSO (PISA); higher = thermal stabilisation; K562 cells, 10 uM, 30 min; active = over 0.2 and 3.5 SD of the protein, either way, in both replicates (recomputed)
The full data set covers some 7,900 targets. This sample favours those with a hit. About 0.6% of all pairs of compound and target were hits.

>  <molecule>
Cc1ccc(Sc2cncc3sc(C(N)=O)cc23)cc1

>  <log2 fold change>
-0.04

$$$$
>  <molecule>
NC1(Cc2ccc(Cl)cc2)CCN(c2ncnc3[nH]ccc23)CC1

>  <log2 fold change>
0.014

$$$$
>  <molecule>
FC(F)(F)c1ccc(/C=C/c2nc(COc3ccc(CCCCn4ccnn4)cc3)co2)cc1 [mubritinib]

>  <log2 fold change>
-0.02

$$$$
>  <molecule>
C[C@H](Nc1ncnc2nc[nH]c12)c1cc2cccc(Cl)c2c(=O)n1-c1ccccc1 [duvelisib]

>  <log2 fold change>
-0.02

$$$$
>  <molecule>
c1cn2cc(-c3ccc4cn[nH]c4c3)nc(Nc3ccc(N4CCOCC4)cc3)c2n1 [entospletinib]

>  <log2 fold change>
0.037

$$$$
>  <molecule>
CN1CCC(CNc2ccc3ncc(-c4cccc(OC(F)(F)F)c4)n3n2)CC1

>  <log2 fold change>
0.01

$$$$
>  <molecule>
CO[C@H]1C[C@@H]2CC[C@@H](C)[C@@](O)(O2)C(=O)C(=O)N2CCCC[C@H]2C(=O)O[C@H]([C@H](C)C[C@@H]2CC[C@H](n3cnnn3)[C@H](OC)C2)CC(=O)[C@H](C)/C=C(\C)[C@@H](O)[C@@H](OC)C(=O)[C@H](C)C[C@H](C)/C=C/C=C/C=C/1C [zotarolimus]

>  <log2 fold change>
-0.011

$$$$
